- Test system: Hela nucleus extract containing a mixture of HDAC isoforms
- experimental-details: HDAC enzyme inhibitory assay with Hela nucleus extract
- Assay type: biochemical
- measurement-setup: 1 µM, mean of three experiments
experimental-readout: HDACs percentage inhibitory rate

Sample records with HDACs percentage inhibitory rate:
CCc1ccc(C(=O)Nc2cc3c(cc2-c2ccc(C(=O)NCCCC(=O)NO)cc2)OCO3)cc1	25.79 ± 5.79%
Cc1ccccc1C(=O)Nc1cc2c(cc1-c1ccc(C(=O)NCCCC(=O)NO)cc1)OCO2	13.65 ± 4.04%
O=C(CCCNC(=O)c1ccc(-c2cc3c(cc2NC(=O)c2cc(F)cc(F)c2)OCO3)cc1)NO	28.72 ± 4.74%
O=C(CCCNC(=O)c1ccc(-c2cc3c(cc2NC(=O)c2cccc(Br)c2)OCO3)cc1)NO	6.63 ± 1.28%
Nc1cc2c(cc1-c1ccc(C(=O)NCc3ccc(C(=O)NO)cc3)cc1)OCO2	58.84 ± 2.40%
CCc1ccc(C(=O)Nc2cc3c(cc2-c2ccc(C(=O)NCc4ccc(C(=O)NO)cc4)cc2)OCO3)cc1	53.90 ± 1.82%
CC(C)(C)OC(=O)Nc1cc2c(cc1-c1ccc(C(=O)NCc3ccc(C(=O)NO)cc3)cc1)OCO2	48.09 ± 3.01%
O=C(NO)c1ccc(CNC(=O)c2ccc(-c3cc4c(cc3NC(=O)c3ccc(C(F)(F)F)cc3)OCO4)cc2)cc1	47.03 ± 15.05%

stdin: Request the reported HDACs percentage inhibitory rate associated with O=C(NO)c1ccc(CNC(=O)c2ccc(-c3cc4c(cc3NC(=O)c3ccccc3Cl)OCO4)cc2)cc1
stdout: 59.61 ± 6.64%

stdin: Request the reported HDACs percentage inhibitory rate associated with O=C(NO)c1ccc(CNC(=O)c2ccc(-c3cc4c(cc3NC(=O)c3cccc(Br)c3)OCO4)cc2)cc1
stdout: 49.47 ± 9.25%

====

Some compounds, each annotated with its measured HDACs percentage inhibitory rate.
- System: Hela nucleus extract containing a mixture of HDAC isoforms
- experimental-details: HDAC enzyme inhibitory assay with Hela nucleus extract
- Assay type: biochemical
- measurement-setup: 1 µM, mean of three experiments

Sample records with HDACs percentage inhibitory rate:
O=C(CCCNC(=O)c1ccc(-c2cc3c(cc2NC(=O)c2cc(F)ccc2F)OCO3)cc1)NO	24.89 ± 4.89%
O=C(CCCNC(=O)c1ccc(-c2cc3c(cc2NC(=O)c2ccc(F)c(Cl)c2)OCO3)cc1)NO	24.43 ± 2.90%
O=C(CCCNC(=O)c1ccc(-c2cc3c(cc2NC(=O)c2c(F)cccc2Cl)OCO3)cc1)NO	15.58 ± 3.25%
O=C(CCCNC(=O)c1ccc(-c2cc3c(cc2NC(=O)c2ccccc2)OCO3)cc1)NO	14.32 ± 2.19%
CCCc1ccc(C(=O)Nc2cc3c(cc2-c2ccc(C(=O)NCCCC(=O)NO)cc2)OCO3)cc1	21.14 ± 2.55%
O=C(NO)c1ccc(CNC(=O)c2ccc(-c3cc4c(cc3NC(=O)c3ccccc3F)OCO4)cc2)cc1	66.54 ± 1.47%

stdin: Request the reported HDACs percentage inhibitory rate associated with O=C(NO)c1ccc(CNC(=O)c2ccc(-c3cc4c(cc3NC(=O)c3ccccc3)OCO4)cc2)cc1
stdout: 57.50 ± 2.92%

stdin: Request the reported HDACs percentage inhibitory rate associated with O=C(NO)c1ccc(CNC(=O)c2ccc(-c3cc4c(cc3NC(=O)c3cccc(C(F)(F)F)c3)OCO4)cc2)cc1
stdout: 47.09 ± 0.62%

From: paper PMC7939570
